System: A-375
test.method.notes: Photocytotoxicity against human A375 cells preincubated for 24 hrs followed by exposure to light with fluence rate of 7.5 mW/cm2 until 10 J measured after 24 hrs by MTT assay
Type: functional, cell-based

{"columns": ["molecule", "IC50"],
 "data": [
  ["OCc1nn2c(c1CO)CC1c3nc(cc4ccc([nH]4)c(-c4ccccc4)c4nc(cc5ccc([nH]5)c3-c3ccccc3)C=C4)C1C2 (centres undefined)", "2.9 nM"],
  ["COC(=O)c1nn2c(c1C(=O)OC)CC1c3nc(cc4ccc([nH]4)c(-c4ccccc4)c4nc(cc5ccc([nH]5)c3-c3ccccc3)C=C4)C1C2 (centres undefined)", "14.5 nM"],
  ["OCc1nn2c(c1CO)CC1c3cc4ccc([nH]4)c(-c4ccccc4)c4nc(cc5ccc([nH]5)c(-c5ccccc5)c(n3)C1C2)C=C4 (centres undefined)", "4.9 nM"],
  ["COC(=O)c1nn2c(c1C(=O)OC)CC1c3cc4ccc([nH]4)c(-c4ccccc4)c4nc(cc5ccc([nH]5)c(-c5ccccc5)c(n3)C1C2)C=C4 (centres undefined)", "14.3 nM"]
]}
